Target: T1, human GFRα3 expressed with a C-terminal mFc tag (human)
T1 construct: also called hGFRα3-mFc
T1 chain: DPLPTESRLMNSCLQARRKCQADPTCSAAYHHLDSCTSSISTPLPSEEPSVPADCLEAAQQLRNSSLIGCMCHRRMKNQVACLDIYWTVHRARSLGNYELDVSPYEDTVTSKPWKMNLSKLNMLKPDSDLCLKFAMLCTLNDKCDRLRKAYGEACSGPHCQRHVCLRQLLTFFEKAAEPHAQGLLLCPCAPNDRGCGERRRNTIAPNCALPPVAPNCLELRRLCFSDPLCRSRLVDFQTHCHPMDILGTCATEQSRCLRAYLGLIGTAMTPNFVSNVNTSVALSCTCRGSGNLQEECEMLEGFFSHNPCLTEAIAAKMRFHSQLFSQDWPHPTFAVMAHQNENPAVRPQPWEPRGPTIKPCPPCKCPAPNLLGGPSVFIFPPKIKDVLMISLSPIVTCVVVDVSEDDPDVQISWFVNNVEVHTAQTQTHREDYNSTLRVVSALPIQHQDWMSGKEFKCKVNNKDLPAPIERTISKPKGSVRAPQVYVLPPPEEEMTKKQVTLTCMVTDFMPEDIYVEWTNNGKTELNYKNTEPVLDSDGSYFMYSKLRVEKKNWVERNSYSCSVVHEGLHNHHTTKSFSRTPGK
Experiment: SPR, Ab captured, 37C
Listed here are binders together with their documented koff.

>  <binder>
H4H2354S (antibody, human IgG4, V domains shown, human IgG4 Fc (H4H); also called H4H2354S-1) VH: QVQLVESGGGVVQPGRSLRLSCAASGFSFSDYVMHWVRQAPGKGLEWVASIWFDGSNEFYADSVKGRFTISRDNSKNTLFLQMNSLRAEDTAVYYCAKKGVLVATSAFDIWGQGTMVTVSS VL: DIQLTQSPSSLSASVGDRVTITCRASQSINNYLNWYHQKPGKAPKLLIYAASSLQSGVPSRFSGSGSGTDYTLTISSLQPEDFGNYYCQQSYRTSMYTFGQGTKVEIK

>  <koff [s⁻¹]>
9.11e-05

$$$$
>  <binder>
H4H2295S (antibody, human IgG4, V domains shown, human IgG4 Fc (H4H)) VH: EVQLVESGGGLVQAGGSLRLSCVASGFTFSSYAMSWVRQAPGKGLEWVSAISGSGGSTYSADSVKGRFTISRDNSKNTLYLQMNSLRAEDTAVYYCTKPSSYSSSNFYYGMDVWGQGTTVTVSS VL: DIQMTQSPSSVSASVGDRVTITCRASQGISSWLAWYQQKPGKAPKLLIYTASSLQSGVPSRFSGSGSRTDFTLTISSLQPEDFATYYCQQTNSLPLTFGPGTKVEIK

>  <koff [s⁻¹]>
4.88e-05

$$$$
>  <binder>
H4H2291S (antibody, human IgG4, V domains shown, human IgG4 Fc (H4H)) VH: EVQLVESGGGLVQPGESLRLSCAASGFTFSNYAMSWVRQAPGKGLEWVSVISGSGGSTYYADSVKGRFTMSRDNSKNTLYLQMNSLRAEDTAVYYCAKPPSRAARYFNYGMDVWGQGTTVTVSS VL: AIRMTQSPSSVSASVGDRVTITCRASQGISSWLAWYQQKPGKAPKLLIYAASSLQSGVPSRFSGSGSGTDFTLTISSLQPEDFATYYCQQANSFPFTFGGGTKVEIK

>  <koff [s⁻¹]>
3.84e-05

$$$$
>  <binder>
H4H2350P (antibody, human IgG4, V domains shown, human IgG4 Fc (H4H)) VH: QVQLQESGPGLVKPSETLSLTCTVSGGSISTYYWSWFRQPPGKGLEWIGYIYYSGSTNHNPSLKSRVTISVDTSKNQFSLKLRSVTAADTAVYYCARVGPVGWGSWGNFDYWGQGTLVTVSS VL: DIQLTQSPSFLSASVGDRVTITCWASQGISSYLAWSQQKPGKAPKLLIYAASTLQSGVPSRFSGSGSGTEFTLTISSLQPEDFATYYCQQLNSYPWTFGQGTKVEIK

>  <koff [s⁻¹]>
0.000126

$$$$
